The entries below come with measured log10 of AC50 values attached.
# Target Or Test System: glucocerebrosidase (GCase), recombinant wt. enzyme velaglucerase alfa (Homo sapiens)
# Construct: purchased Shire Human Genetic Therapies, Inc. Vpriv
# Sequence (P04062 40-536): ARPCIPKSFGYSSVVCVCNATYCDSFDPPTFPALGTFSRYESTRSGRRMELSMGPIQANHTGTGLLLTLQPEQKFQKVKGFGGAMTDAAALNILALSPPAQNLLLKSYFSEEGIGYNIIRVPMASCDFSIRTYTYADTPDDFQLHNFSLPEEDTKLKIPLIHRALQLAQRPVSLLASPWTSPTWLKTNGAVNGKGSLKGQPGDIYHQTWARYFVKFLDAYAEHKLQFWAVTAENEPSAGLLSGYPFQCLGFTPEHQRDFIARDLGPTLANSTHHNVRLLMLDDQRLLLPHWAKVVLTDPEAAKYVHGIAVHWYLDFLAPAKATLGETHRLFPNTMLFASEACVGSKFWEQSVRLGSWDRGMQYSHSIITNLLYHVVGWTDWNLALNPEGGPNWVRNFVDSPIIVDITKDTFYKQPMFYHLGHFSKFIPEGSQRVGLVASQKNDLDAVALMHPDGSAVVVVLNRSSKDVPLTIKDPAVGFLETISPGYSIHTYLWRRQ
# Assay Explanation: Glucocerebrosidase activity assay with blue substrate (4MU-Glc)
# Type: biochemical
# Experimental Parameters: Table 2; values marked activator; read-out: Activity AC50 or IC50
Observation Type: log10 of AC50 (log10 of the value in µM)

{"Smiles Data": "Cc1cc(-c2cccnc2)nc2c(C(=O)Nc3ccc(C#CCCCCCCCCC(=O)O)cc3)ccn12", "log10 of AC50": 0.55}
{"Smiles Data": "COC(=O)CCCCCCCCC#Cc1ccc(NC(=O)c2ccn3c(C)cc(-c4cccnc4)nc23)cc1", "log10 of AC50": -0.15}
{"Smiles Data": "COC(=O)CCCCCCCCC#Cc1ccc(NC(=O)c2ccn3c(C)cc(C)nc23)cc1", "log10 of AC50": -0.15}
{"Smiles Data": "Cc1cc(C)n2ccc(C(=O)NCc3cccnc3Oc3ccccc3)c2n1", "log10 of AC50": 0.79}
{"Smiles Data": "Cc1cc(C)n2ccc(C(=O)Nc3ccc(C#CCCCCCCC#Cc4ccc(N)cc4)cc3)c2n1", "log10 of AC50": 0.10}
{"Smiles Data": "Cc1cc(C)n2ccc(C(=O)Nc3ccc(-c4cn(CCOCCOCCC(=O)NCCOCCOCCOCCNC(=O)CCOCCOCCn5cc(-c6ccc(NC(=O)c7ccn8c(C)cc(C)nc78)cc6)nn5)nn4)cc3)c2n1", "log10 of AC50": 0.10}
{"Smiles Data": "Cc1cc(-c2cccnc2)nc2c(C(=O)Nc3ccc(C#CCCCCCCCCC(=O)ON4C(=O)CCC4=O)cc3)ccn12", "log10 of AC50": -0.25}
{"Smiles Data": "Cc1cc(C)n2ccc(C(=O)Nc3ccc(I)cc3)c2n1", "log10 of AC50": -0.50}
{"Smiles Data": "COC(=O)CCCCCc1cccc(NC(=O)c2ccn3c(C)cc(C)nc23)c1", "log10 of AC50": 0.25}
{"Smiles Data": "Cc1cc(C)n2ccc(C(=O)Nc3ccc(C#CCCCCCCC#Cc4ccc(NC(=O)c5ccn6c(C)cc(C)nc56)cc4)cc3)c2n1", "log10 of AC50": 1.45}
{"Smiles Data": "Cc1cc(C)n2ccc(C(=O)Nc3ccc(C#CCCCCCCCCC(=O)ON4C(=O)CCC4=O)cc3)c2n1", "log10 of AC50": -0.10}

---

# Target Or Test System: glucocerebrosidase (GCase), recombinant wt. enzyme velaglucerase alfa (Homo sapiens)
# Construct: purchased Shire Human Genetic Therapies, Inc. Vpriv
# Assay Explanation: Glucocerebrosidase activity assay with blue substrate (4MU-Glc)
# Format: biochemical
# Experimental Parameters: Table 1; titration 24 nM to 50 μM; substrate not given; read-out: Ac50
The entries below come with measured AC50 values attached.
Observation Type: AC50 (µM)

{"Smiles Data": "Cc1cc(C)n2ccc(C(=O)Nc3nc4c(s3)CN(C)CC4)c2n1", "Target Or Test System": "glucocerebrosidase (GCase), recombinant wt. enzyme velaglucerase alfa (Homo sapiens)", "Units Symbol": "µM", "Data Value": 39.8}
{"Smiles Data": "CCCn1cnc(NC(=O)c2ccn3c(C)cc(C)nc23)n1", "Target Or Test System": "glucocerebrosidase (GCase), recombinant wt. enzyme velaglucerase alfa (Homo sapiens)", "Units Symbol": "µM", "Data Value": 39.8}
{"Smiles Data": "Cc1cc(C)n2ccc(C(=O)Nc3ccncc3)c2n1", "Target Or Test System": "glucocerebrosidase (GCase), recombinant wt. enzyme velaglucerase alfa (Homo sapiens)", "Units Symbol": "µM", "Data Value": 25.1}
{"Smiles Data": "Cc1cc(C)n2ccc(C(=O)Nc3nc4ccccc4s3)c2n1", "Target Or Test System": "glucocerebrosidase (GCase), recombinant wt. enzyme velaglucerase alfa (Homo sapiens)", "Units Symbol": "µM", "Data Value": 0.4}
{"Smiles Data": "Cc1cc(C)n2ccc(C(=O)NC3CCCCC3)c2n1", "Target Or Test System": "glucocerebrosidase (GCase), recombinant wt. enzyme velaglucerase alfa (Homo sapiens)", "Units Symbol": "µM", "Data Value": 15.8}
{"Smiles Data": "Cc1cc(C)n2ccc(C(=O)Nc3ccc(N4CCOCC4)cc3)c2n1", "Target Or Test System": "glucocerebrosidase (GCase), recombinant wt. enzyme velaglucerase alfa (Homo sapiens)", "Units Symbol": "µM", "Data Value": 1.41}
{"Smiles Data": "Cc1cc(C)n2ccc(C(=O)Nc3ccc(CN4CCCCC4)cc3)c2n1", "Target Or Test System": "glucocerebrosidase (GCase), recombinant wt. enzyme velaglucerase alfa (Homo sapiens)", "Units Symbol": "µM", "Data Value": 70.8}
{"Smiles Data": "Cc1cc(C)n2ccc(C(=O)Nc3ccc(-c4cn(CCN(C)C)nn4)cc3)c2n1", "Target Or Test System": "glucocerebrosidase (GCase), recombinant wt. enzyme velaglucerase alfa (Homo sapiens)", "Units Symbol": "µM", "Data Value": 39.8}
{"Smiles Data": "CCN1CCN(c2ccc(NC(=O)c3ccn4c(C)cc(C)nc34)cc2)CC1", "Target Or Test System": "glucocerebrosidase (GCase), recombinant wt. enzyme velaglucerase alfa (Homo sapiens)", "Units Symbol": "µM", "Data Value": 31.6}
{"Smiles Data": "Cc1cc(C)n2ccc(C(=O)Nc3ncc4ccccc4n3)c2n1", "Target Or Test System": "glucocerebrosidase (GCase), recombinant wt. enzyme velaglucerase alfa (Homo sapiens)", "Units Symbol": "µM", "Data Value": 35.5}
{"Smiles Data": "Cc1cc(C)n2ccc(C(=O)Nc3ccc(-c4cn(CCCCCCC(=O)O)nn4)cc3)c2n1", "Target Or Test System": "glucocerebrosidase (GCase), recombinant wt. enzyme velaglucerase alfa (Homo sapiens)", "Units Symbol": "µM", "Data Value": 1.78}
{"Smiles Data": "Cc1cc(C)n2ccc(C(=O)Nc3ccc(-c4cn(CCCCCCC(=O)ON5C(=O)CCC5=O)nn4)cc3)c2n1", "Target Or Test System": "glucocerebrosidase (GCase), recombinant wt. enzyme velaglucerase alfa (Homo sapiens)", "Units Symbol": "µM", "Data Value": 0.4}

---

The entries below come with measured AC50 values attached.
# Target Or Test System: glucocerebrosidase (GCase), recombinant wt. enzyme velaglucerase alfa (Homo sapiens, UniProt P04062)
# Construct: purchased Shire Human Genetic Therapies, Inc. Vpriv
# Assay Explanation: Glucocerebrosidase activity assay with blue substrate (4MU-Glc)
# Format: biochemical
# Experimental Parameters: Table 1; titration 24 nM to 50 μM; substrate not given; read-out: Ac50

{"Smiles Data": "Cc1cc(C)n2ccc(C(=O)Nc3ccccn3)c2n1", "Units Symbol": "µM", "AC50": 22.4}
{"Smiles Data": "Cc1ccc2nc(NC(=O)c3ccn4c(C)cc(C)nc34)sc2c1", "Units Symbol": "µM", "AC50": 0.2}
{"Smiles Data": "Cc1cc(C)n2ccc(C(=O)NC3CCN(Cc4ccccc4)CC3)c2n1", "Units Symbol": "µM", "AC50": 50}
{"Smiles Data": "Cc1cc(C)n2ccc(C(=O)Nc3nc4ccccc4[nH]3)c2n1", "Units Symbol": "µM", "AC50": 1.26}
{"Smiles Data": "Cc1cc(C)n2ccc(C(=O)Nc3ccc(CCN4CCN(C)CC4)cc3)c2n1", "Units Symbol": "µM", "AC50": 44.7}
{"Smiles Data": "CCc1nnc(NC(=O)c2ccn3c(C)cc(C)nc23)s1", "Units Symbol": "µM", "AC50": 22.4}
{"Smiles Data": "Cc1cc(C)n2ccc(C(=O)Nc3ccc(N4CCN(C)CC4)cc3)c2n1", "Units Symbol": "µM", "AC50": 7.08}
{"Smiles Data": "Cc1cc(C)n2ccc(C(=O)Nc3ccc(N4CCN(Cc5ccccc5)CC4)cc3)c2n1", "Units Symbol": "µM", "AC50": 5.01}
{"Smiles Data": "Cc1cc(C)n2ccc(C(=O)NC3Cc4ccccc4C3)c2n1", "Units Symbol": "µM", "AC50": 2.51}

Sourced from patent US9802942B2
